B1: TRIM63 (parent)
chain: FRCPTCRHEVIMDRHGVYGLQRNL

variants of: B1; assay: protein stability index of a GFP-peptide fusion (GPS, HEK-293T) (PSI 1-6); higher = more stable; details: c terminus: a fixed tail appended;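 also: lentivirally expressed fusions sorted by FACS into six bins by GFP to DsRed ratio, PSI derived from sequencing read proportions per bin multiplied by bin number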
readout.label: protein stability index
Answers are plain numbers.

C6F: 1.63
R7M: 2.42
E9I: 1.43
Q21P: 1.96

# map each variant to its protein stability index
1. R2A
2. R7K
3. L20W
4. R2D
5. R14W
6. C3Q
7. M12E

1. 2.96
2. 3.15
3. 2.25
4. 3.32
5. 1.72
6. 1.78
7. 2.19

# map each variant to its protein stability index
1. V17W
2. R22K
3. P4R
4. T5Q
5. R22Y
6. G16W
7. M12P
8. N23E

1.8
2.02
2.18
1.64
1.75
2.31
1.62
2.05

# map each variant to its protein stability index
1. V17H
2. D13K
3. R7E
4. G19V
5. F1A
6. L24K

[2.23, 1.76, 2.09, 2.14, 1.16, 1.89]

# map each variant to its protein stability index
1. V17Q
2. E9L

[3, 2.99]

# map each variant to its protein stability index
1. V10K
2. R22N
3. G16H
4. L20Q
5. H8K
6. D13Y
7. V10A

3.42
2.95
2.34
2.07
2.02
1.69
2.65

# map each variant to its protein stability index
1. G16F
2. R22L
3. C6H
4. L20M

[2.65, 1.34, 1.91, 1.81]
